experiment: Sensory evaluation of aqueous solution V containing 1-octen-3-ol 10 ppb: off-flavor intensity and masking component intensity; conditions: 100 ppb added, 1-octen-3-ol 10 ppb, average score 0-4

{"compound": "O=C1CCCCCCCCCCCC(=O)OCCO1", "Off-Flavor Intensity [points]": 0.5}
{"compound": "CCC(=O)/C=C/C1C(C)=CCCC1(C)C (stereo not drawn)", "Off-Flavor Intensity [points]": 0.5}
{"compound": "CCCCCCCC/C=C\\CCCCCCCC(=O)O", "Off-Flavor Intensity [points]": 2.9}
{"compound": "CC(=O)/C=C/C1=C(C)CCCC1(C)C", "Off-Flavor Intensity [points]": 0.8}
{"compound": "CCCC(=O)C(C)=O", "Off-Flavor Intensity [points]": 2.0}
{"compound": "C=CC(C)(CCC=C(C)C)OC(=O)CCC (stereo not drawn) [Linalyl Butyrate, linalyl butyrate]", "Off-Flavor Intensity [points]": 1.9}
{"compound": "C/C=C/C(=O)C1=C(C)C=CCC1(C)C", "Off-Flavor Intensity [points]": 0.8}
{"compound": "CC(=O)/C=C/C1C(C)=CCCC1(C)C (stereo not drawn)", "Off-Flavor Intensity [points]": 1.0}
{"compound": "C=C(C)[C@@H]1CCC2=CC(=O)C[C@@H](C)[C@]2(C)C1", "Off-Flavor Intensity [points]": 1.8}

====

Assay: Sensory evaluation of aqueous solution IV containing 1,5-octadien-3-one 100 ppt: off-flavor intensity and masking component intensity
Conditions: aqueous solution IV; 100 ppt added; average panel score
Method: In ion-exchanged water, each degradation component was added to achieve the concentrations listed in Table 1, and aqueous solutions I to VI containing these degradation components were prepared. […] Also, the intensity of the masking components (impact on the flavor of the food and/or beverage itself) was absolutely evaluated according to the following evaluation criteria. […]

{"molecule": "CC(O)CC(=O)OC1CC(C)CCC1C(C)C (stereo not drawn) [menthyl 3-hydroxybutyrate]", "Masking Component Intensity": 0.1}
{"molecule": "CC(C)C=C(C=O)c1ccccc1", "Masking Component Intensity": 0.3}
{"molecule": "CC(=O)/C(C)=C/C1C(C)=CCCC1(C)C (stereo not drawn)", "Masking Component Intensity": 0.6}
{"molecule": "C=CC(C)(O)CCC=C(C)CCC=C(C)C (stereo not drawn)", "Masking Component Intensity": 0.1}
{"molecule": "CC1CCC(C(C)C)C(OCCO)C1 (stereo not drawn)", "Masking Component Intensity": 0.1}
{"molecule": "CC1CCC(C(C)C)C(OCC(O)CO)C1 (stereo not drawn)", "Masking Component Intensity": 0.0}

====

Recorded Off-Flavor Intensity values for a group of compounds are listed next.
Test: Sensory evaluation of aqueous solution V containing 1-octen-3-ol 10 ppb: off-flavor intensity and masking component intensity
Settings: 10 ppt added, 1-octen-3-ol 10 ppb, average score 0-4
Description: In ion-exchanged water, each degradation component was added to achieve the concentrations listed in Table 1, and aqueous solutions I to VI containing these degradation components were prepared. […] Also, the intensity of the masking components (impact on the flavor of the food and/or beverage itself) was absolutely evaluated according to the following evaluation criteria. […]

{"compound": "C=CC(C)(CCC=C(C)C)OC(=O)CCC (stereo not shown) [Linalyl Butyrate, linalyl butyrate]", "Off-Flavor Intensity / points": 3.3}
{"compound": "CC(=O)/C=C/C1C(C)=CCCC1(C)C (stereo not drawn) [α-Ionone, α-ionone]", "Off-Flavor Intensity / points": 2.5}
{"compound": "CC(=O)/C=C/C1=C(C)CCCC1(C)C [β-Ionone, β-ionone]", "Off-Flavor Intensity / points": 2.5}
{"compound": "C/C=C/C(=O)C1=C(C)C=CCC1(C)C [β-Damascenone, β-damascenone]", "Off-Flavor Intensity / points": 2.4}
{"compound": "C=C(C)[C@@H]1CCC2=CC(=O)C[C@@H](C)[C@]2(C)C1 [Nootkatone, nootkatone]", "Off-Flavor Intensity / points": 3.4}
{"compound": "O=C1CCCCCCCCCCCC(=O)OCCO1 [1,4-Dioxacycloheptadecan-5,17-Dione, 1,4-dioxacycloheptadecan-5,17-dione]", "Off-Flavor Intensity / points": 2.5}
{"compound": "CCC(=O)/C=C/C1C(C)=CCCC1(C)C (stereo not drawn) [α-Methyl Ionone, α-methyl ionone]", "Off-Flavor Intensity / points": 2.4}
